# credit: patent US20190047966A1

- TARGET: human histamine H4 receptor (Homo sapiens, UniProt Q9H3N8)
- Construct: purchased PerkinElmer Inc; host or cells: CHO-K1
- Sequence (Q9H3N8 whole entry): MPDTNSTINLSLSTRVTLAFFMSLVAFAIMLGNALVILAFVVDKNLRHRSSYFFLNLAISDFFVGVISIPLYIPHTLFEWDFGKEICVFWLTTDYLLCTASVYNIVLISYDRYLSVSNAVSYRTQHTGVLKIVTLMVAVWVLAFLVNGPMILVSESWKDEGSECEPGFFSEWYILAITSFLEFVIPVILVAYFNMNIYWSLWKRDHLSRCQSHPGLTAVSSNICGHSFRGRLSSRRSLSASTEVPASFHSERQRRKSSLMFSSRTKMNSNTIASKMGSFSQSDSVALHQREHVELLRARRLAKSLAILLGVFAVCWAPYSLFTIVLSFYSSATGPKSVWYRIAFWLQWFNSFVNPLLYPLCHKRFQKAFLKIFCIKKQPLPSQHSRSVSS
- TEST PROTOCOL: Evaluation of Human H4 Receptor Affinity ([3H]histamine binding)
- RECORDED CONDITIONS: inhibition constant Ki, CHO-K1 membrane preparation, read-out: Evaluation of H4 Receptor Affinity
pKi: −log10 of the molar value.
MEASURED QUANTITY: pKi

Illustrative cases are given below, each with its answer.
Nc1nc2c(c(N3CCN(CCO[C@H]4C[C@@H]5[C@H](C4)[C@@]5(F)C(=O)O)CC3)n1)CCc1cc(OCc3ccc(OC(F)(F)F)cc3)ccc1-2 [Example 180]    > 7.00
Nc1nc2c(c(N3CCN(CCOCc4ccc(C(=O)O)cc4)CC3)n1)CCc1cc(OCc3ccc(Cl)cc3)ccc1-2 [128(b)]    > 7.00
CN1CCN(c2nc(N)nc3c2CCc2cc(NS(=O)(=O)c4ccccc4)ccc2-3)CC1 [Example 41]    6.30 to 7.00

Here is another compound to look at.
Observed pKi, human histamine H4 receptor (Homo sapiens, UniProt Q9H3N8), Nc1nc2c(c(N3CCN(CCOCCSCC(=O)O)CC3)n1)CCc1cc(OCc3ccc(OC(F)(F)F)cc3)ccc1-2 [Example 178] : > 7.00

###

- TARGET: human histamine H4 receptor (Homo sapiens)
- Construct: purchased PerkinElmer Inc; host or cells: CHO-K1
- TEST PROTOCOL: Evaluation of Human H4 Receptor Affinity ([3H]histamine binding)
- RECORDED CONDITIONS: Evaluation of H4 Receptor Affinity, inhibition constant Ki, CHO-K1 membrane preparation
pKi: −log10 of the molar value.
MEASURED QUANTITY: pKi

What the record says about "CN1CCN(c2nc(N)nc3c2CCc2cc(OCc4ccccc4)ccc2-3)CC1" : pKi is > 7.00

###

- TARGET: human histamine H4 receptor (Homo sapiens, UniProt Q9H3N8)
- Construct: purchased PerkinElmer Inc; host or cells: CHO-K1
- TEST PROTOCOL: Evaluation of Human H4 Receptor Affinity ([3H]histamine binding)
- RECORDED CONDITIONS: inhibition constant Ki, CHO-K1 membrane preparation, read-out: Evaluation of H4 Receptor Affinity
Where a name gives a salt, the structure may show the parent alone.
In this section we review reported Ki values for a set of compounds.

Reference set (5 entries):
COC(=O)c1cccc(COCCN2CCN(c3nc(N)nc4c3CCc3cc(OCc5ccc(Cl)cc5)ccc3-4)CC2)n1    < 100 nM
Nc1nc2c(c(N3CCN(CCCCCOCC(=O)O)CC3)n1)CCc1cc(OCc3ccccc3)ccc1-2    < 100 nM
Nc1nc2c(c(N3CCN(CCO[C@H]4C[C@@H](C(=O)O)C4)CC3)n1)CCc1cc(OCc3ccc(OC(F)(F)F)cc3)ccc1-2    < 100 nM
Nc1nc2c(c(N3CCN(CCCCOC4CC(C(=O)O)C4)CC3)n1)CCc1cc(OCc3ccc(Cl)cc3)ccc1-2 (stereo not shown) [Example 141, dihydrochloride]    100 to 500 nM
Nc1nc2c(c(N3CCN(CCOCc4ccc(C(=O)O)o4)CC3)n1)CCc1cc(OCc3ccc(Cl)cc3)ccc1-2    100 to 500 nM

Measured on human histamine H4 receptor (Homo sapiens, UniProt Q9H3N8), "Nc1nc2c(c(N3CCN(CCO[C@H]4CC[C@H](C(=O)O)CC4)CC3)n1)CCc1cc(OCc3ccc(Cl)cc3)ccc1-2" has a documented Ki of < 100 nM

Lab entry: human histamine H4 receptor (Homo sapiens, UniProt Q9H3N8) assay, compound "Nc1nc2c(c(N3CCNCC3)n1)CCc1cc(OCc3ccc(Cl)cc3)ccc1-2" , Ki = < 100 nM

###

This section lists pKi readings for human histamine H1 receptor (Homo sapiens).
pKi: −log10 of the molar value. Structures can show the parent of a compound that is named as a salt.

Example results:
Nc1nc2c(c(N3CCNCC3)n1)CCc1cc(OCc3ccccc3)ccc1-2    > 7.00
Nc1nc2c(c(N3CCN(CCOCC4CC(C(=O)O)C4)CC3)n1)CCc1cc(OCc3ccc(Cl)cc3)ccc1-2 (stereo not drawn)    > 7.00
CN1CCN(c2nc(N)nc3c2CCc2cc(OCc4ccc(OC(F)(F)F)cc4)ccc2-3)CC1    > 7.00
Nc1nc2c(c(N3CCN(CCO[C@H]4C[C@@H](C(=O)O)C4)CC3)n1)CCc1cc(OCc3ccc(OC(F)F)cc3)ccc1-2    > 7.00
COC(=O)[C@@H]1CC[C@H](COCCN2CCN(c3nc(N)nc4c3CCc3cc(OCc5ccc(Cl)cc5)ccc3-4)CC2)C1 (relative stereo)    > 7.00

Recorded pKi for Nc1nc2c(c(N3CCN(CCOC4CC4C(=O)O)CC3)n1)CCc1cc(OCc3ccc(Cl)cc3)ccc1-2 (stereo not drawn) on human histamine H1 receptor (Homo sapiens) was > 7.00

The molecule "COC(=O)c1cccc(COCCN2CCN(c3nc(N)nc4c3CCc3cc(OCc5ccc(OC(F)(F)F)cc5)ccc3-4)CC2)c1" , tested on human histamine H1 receptor (Homo sapiens), showed pKi of > 7.00

Summary line: "Nc1nc2c(c(N3CCN(CCO[C@H]4C[C@@H](C(=O)NO)C4)CC3)n1)CCc1cc(OCc3ccc(OC(F)(F)F)cc3)ccc1-2" , human histamine H1 receptor (Homo sapiens), reported pKi = > 7.00

Value (pKi, human histamine H1 receptor (Homo sapiens)) for record "CC(C)(C(=O)O)[C@H]1C[C@@H](OCCN2CCN(c3nc(N)nc4c3CCc3cc(OCc5ccc(Cl)cc5)ccc3-4)CC2)C1" = > 7.00

Measured pKi (human histamine H1 receptor (Homo sapiens)), entry "CN1CCN(c2nc(N)nc3c2CCc2cc(NS(=O)(=O)C4CCCCC4)ccc2-3)CC1" : 6.30 to 7.00

The measured pKi that CC12CCC(C(=O)O)(CC1OCCN1CCN(c3nc(N)nc4c3CCc3cc(OCc5ccc(Cl)cc5)ccc3-4)CC1)C2(C)C (stereo not drawn) [Example 158, hydrochloride] showed for human histamine H1 receptor (Homo sapiens) is > 7.00

###

// reported pKi per item
- TARGET: human histamine H4 receptor (Homo sapiens)
- Construct: purchased PerkinElmer Inc; host or cells: CHO-K1
- TEST PROTOCOL: Evaluation of Human H4 Receptor Affinity ([3H]histamine binding)
- RECORDED CONDITIONS: inhibition constant Ki, CHO-K1 membrane preparation, read-out: Evaluation of H4 Receptor Affinity
pKi: −log10 of the molar value.

Check out these entries, answers already filled in.
NC(=O)COCCOCCN1CCN(c2nc(N)nc3c2CCc2cc(OCc4ccccc4)ccc2-3)CC1    6.30 to 7.00
COC(=O)c1cccc(COCCN2CCN(c3nc(N)nc4c3CCc3cc(OCc5ccc(Cl)cc5)ccc3-4)CC2)c1    6.30 to 7.00
CN1CCN(c2nc(N)nc3c2CCCc2ccc(OCc4ccccc4)cc2-3)CC1    > 7.00

Proceeding to the next compound to report its pKi.
Given the compound "COC(=O)c1ccc(F)c(COCCN2CCN(c3nc(N)nc4c3CCc3cc(OCc5ccc(Cl)cc5)ccc3-4)CC2)c1" and test system human histamine H4 receptor (Homo sapiens), the measured pKi is 6.30 to 7.00

###

- TARGET: human histamine H4 receptor (Homo sapiens, UniProt Q9H3N8)
- Construct: purchased PerkinElmer Inc; host or cells: CHO-K1
- TEST PROTOCOL: Evaluation of Human H4 Receptor Affinity ([3H]histamine binding)
- RECORDED CONDITIONS: inhibition constant Ki, CHO-K1 membrane preparation, read-out: Evaluation of H4 Receptor Affinity
pKi: −log10 of the molar value.
In this section, each of the molecules is paired with its reported pKi.

molecule Nc1nc2c(c(N3CCN(CCOCCOCC(=O)O)CC3)n1)CCc1cc(OCc3ccccc3)ccc1-2 [Example 119, bis(trifluoroacetate)] , pKi observed: 6.30 to 7.00

Field pKi (entry "CN1CCN(c2nc(N)nc3c2CCc2cc(NS(=O)(=O)CCCc4ccccc4)ccc2-3)CC1" ) reads > 7.00

Kindly note the recorded pKi for "Nc1nc2c(c(N3CCN(CCO[C@H]4CC[C@H]5[C@H](C(=O)O)[C@H]54)CC3)n1)CCc1cc(OCc3ccc(OC(F)(F)F)cc3)ccc1-2" , which is 6.30 to 7.00

So for "Nc1nc2c(c(N3CCN(CCOCC4CNC4)CC3)n1)CCc1cc(OCc3ccc(OC(F)(F)F)cc3)ccc1-2" , the logged pKi turned out to be > 7.00

###

Overview of reported pKi across a group of compounds:
- TARGET: UniProt:P35367
pKi: −log10 of the molar value.

COC(=O)c1ccc(S(=O)(=O)Nc2ccc3c(c2)CCc2c-3nc(N)nc2N2CCN(C)CC2)cc1 [Example 55]    6.30 to 7.00
CN1CCN(c2nc(N)nc3c2CCc2cc(NS(=O)(=O)c4ccc(OCC(F)(F)F)cc4)ccc2-3)CC1 [Example 191]    > 7.00
Nc1nc2c(c(N3CCN(CCO[C@H]4C[C@@H](C(N)=O)C4)CC3)n1)CCc1cc(OCc3ccc(OC(F)(F)F)cc3)ccc1-2 [Example 33]    > 7.00
Nc1nc2c(c(N3CCN(CCO[C@H]4C[C@@H](CC(=O)O)C4)CC3)n1)CCc1cc(OCc3ccc(OC(F)(F)F)cc3)ccc1-2 [Example 36]    > 7.00
CCOC(=O)c1csc(COCCN2CCN(c3nc(N)nc4c3CCc3cc(OCc5ccc(Cl)cc5)ccc3-4)CC2)n1 [135(a)]    > 7.00

Noted for N#CC1(C(=O)O)CCC(COCCN2CCN(c3nc(N)nc4c3CCc3cc(OCc5ccc(OC(F)(F)F)cc5)ccc3-4)CC2)CC1 (stereo not shown) [Example 175] : its pKi reads > 7.00

Please fill in: pKi reported for CCOC(=O)C1CCC(O)(COCCN2CCN(c3nc(N)nc4c3CCc3cc(OCc5ccc(Cl)cc5)ccc3-4)CC2)CC1 (stereo not shown) [166(a)] = > 7.00

Lab note: measured pKi of Nc1nc2c(c(N3CCN(CCOCc4cccc(C(=O)O)c4)CC3)n1)CCc1cc(OCc3ccc(OC(F)(F)F)cc3)ccc1-2 [16(b)] was > 7.00

// recorded pKi for CN1CCN(c2nc(N)nc3c2CCc2cc(NS(=O)(=O)Cc4ccccc4)ccc2-3)CC1 [Example 48] : 6.30 to 7.00

Entry COC(=O)COCCOCCN1CCN(c2nc(N)nc3c2CCc2cc(OCc4ccc(Cl)cc4)ccc2-3)CC1 [11(a)] , pKi reported as > 7.00

Reported pKi ( Nc1nc2c(c(N3CCN(CCOC[C@H]4CC[C@H](C(=O)O)CC4)CC3)n1)CCc1cc(OCc3ccc(OC(F)(F)F)cc3)ccc1-2 [Example 29] ) = > 7.00

Per the record, CN1CCN(c2nc(N)nc3c2CCc2cc(NS(=O)(=O)N4CCC(F)(F)CC4)ccc2-3)CC1 [Example 194] has pKi of 6.30 to 7.00

# compound CN1CCN(c2nc(N)nc3c2CCc2cc(NS(=O)(=O)c4ccc(C#N)cc4)ccc2-3)CC1 [Example 47] ; its pKi = 6.30 to 7.00

For record Nc1nc2c(c(N3CCN(CCCCOCc4nnn[nH]4)CC3)n1)CCc1cc(OCc3ccc(Cl)cc3)ccc1-2 [Example 145, bis(trifluoroacetate)] the listed pKi is > 7.00

Consider CC(C)(OCCOCCN1CCN(c2nc(N)nc3c2CCc2cc(OCc4ccc(Cl)cc4)ccc2-3)CC1)C(=O)O [Example 122] . Its measured pKi is > 7.00

According to the records, this compound COC(=O)c1ccc(COCCN2CCN(c3nc(N)nc4c3CCc3cc(OCc5ccc(OC(F)(F)F)cc5)ccc3-4)CC2)o1 [20(a)] displays pKi of > 7.00
